- Assay info: soluble on expression in E. coli; label from the status in PepcDB or PDB records
Measured attribute: soluble on expression in E. coli

MEWPRFGRVVLKPFSAGLSEAEWKGLYETFRDPEVAEWNGSSPLRSPFWLFKRFVLAEARRKDRVAFVILDEKGEYLGTLELYDLTPEEATLGILIGRKDRWGQGYGTEAVRAALDYAFRVLGLRRVKLRTFAHNLRARRAFQKAGFREVGVVPGPRGREDVHMEVRREDLGPEA : soluble
MSLKLSNERAEWQAQMKKSVISEERQRLARDLHDAVSQQLFAISMMTSAVLEHVKDADDKTVKRIRMVEHMAGEAQNEMRALLLHLRPVTLEGKGLKEGLTELLDEFRKKQPIDIEWDIQDTAISKGVEDHLFRIVQEALSNVFRHSKASKVTVILGIKNSQLRLKVIDNGKGFKMDQVKASSYGLNSMKERASEIGGVAEVISVEGKGTQIEVKVPIFPEEKGENERDSSIIDEGHHHHHH : soluble

* * *

- Assay info: soluble on expression in E. coli; label from the status in PepcDB or PDB records
Measured attribute: soluble on expression in E. coli

See these solved cases before continuing.
MCKMEITDLIKGMESANVSDIYIFLHEDGPVAFDASAAHLLCYFPEMEMESVFCSDSKRHRIIQGFALEPVLERLAQYPCLVDDDCIRIMGVL : not soluble
MVSVSVVIATLKPRDEIEAIQCLEDQTFDDFEVIVCDKSPVTRARNEGIRQSSSDKIVFLDDDSRPQPGYLEKANDVLETEAAYAGRTIHPVDDVFARHFTAHYDWGGDPCYVDHFWGCNMGVHRDVFKTVGGWDEEMGWGHEEKELARRVRSEFDIRYDPELVVDHPYASSITDYWKKQYKLETKSPYYWSKCNVSRADQLKNIFCETFDPLNYVRITPVATMIEAGSTVAKTAGRLRGFLDHTHHEEGRGGVPDIDRPSQSPERSGLEHHHHHH : not soluble
MAHHHHHHMWINKIGNKSASFINHKHFHPGNIKNLERVWLAEENEKKRKEEEEKYLKKREEQYKLYELKKQLRKNEEENKNDVHNILYDINNELKKENSFKKKILHNSISNETTPNENIVNKILIRSKYDEDIFLKNHRSIYGSYYDKEKNKWGFKCCTNIDKNSKCTNNTNCSYNLNNNLIKKDLTKSKNKKKKKKKLIVDNSITAVLNKI : not soluble
MKYQLNLTALRCPIPLLSAKKALKNLDKNDELMLILNLESAVENFSIFAEENSVALVEQYYASEKEFIVILKK : not soluble
SLHEFGITQNIVAIVTEHAKGAKVQRVLLEIGKLSAIMPDAIRFCFDICTQGTVLEGATLEILEIPGLGRCRQCGGEIYLDKPFGICNCGSVQLDLITGEELKIKEIEIEELCV : soluble

Memo: `MLILSTEKEPNFEYEEITRSFLSNMLAFTRGHFTGDISHFSPIVLAEMEKDPNWLEEAAGGMQGVIVQSLLEDENFSSVEQLKGELARLIRLYFALAKDNLTENQESLYVDLFDKFTFLLLCSDEFIMYLDSQPKF` , reported soluble on expression in E. coli: soluble

Memo: `MGVMKGIEFSESKLKEILDQLPIEAQSAFAASCAQRIFTCYVEYARVAKSKKVDLDAYSEAISYVWNAVIAGNHDAIILNGLLERCMAVLPSEEDAWESGTPYAEDAAAAIIYSLRSLASGCPQEAIWAAKRVYEAVDNFVVNTYNVNTNATDGEKFILDHPIVSNELSRQLRDLNEIINSKRDSESLKKTIKIIMERSKSESNDLFSEAT` , reported soluble on expression in E. coli: not soluble

Memo: `MSLDSSISDEDTVTVRTAKQVALVVEGQIQNVTTTAVSVEDLLQEVGGITGADAVDADLSETIPESGLEHHHHHH` , reported soluble on expression in E. coli: not soluble

Memo: `MSLIPKFRAWDTYEKEMLENVTPLFDDSNSMIAIITDFQIKGSPGTSEIEIGSYDTTFNWDEFPYVIMQSTGLKDKNGVEIFEGDILVYDAPKKYAHRRSMHEIAYADGRFFWEFLDLVFCQSNILYRDGYLVIGNIHENPELLEGNEGHHHHHH` , reported soluble on expression in E. coli: soluble
